Recorded T½ for the following binders
- Assay System: T1, mouse big-ET-1 (mouse)
- T1 construct: also called mBig-ET-1
- T1 peptide: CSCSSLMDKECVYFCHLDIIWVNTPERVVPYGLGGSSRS
- Assay Details: SPR (Biacore T200), 37 C, mAb capture, peptide analyte
Show the value, then the unit it is measured in.

H4H6345P (antibody, V domains shown, Human IgG4 Fc (prefix H4H)) VH: EVQLVESGGGLVQPGGSLRLSCAASGFIFSSYAMTWVRQAPGKGLEWVSAISGSGVSTYYADSVKGRFTISRDNSKNTLYLQMNSLRIEDTAVYYCGKARTGTHAFDIWGQGTMVTVSS VL: DIQMTQSPSTLSASVGDRVTITCRASQSISRWLAWYQQKPGKAPKLLIYKASSLETGVPSRFSGSGSGTEFTLTISSLQPDDFGTYYCQQYNSYSSFGPGTKVDIK; 0.1 min
H4H6329P (antibody, V domains shown, Human IgG4 Fc (prefix H4H)) VH: QVQLVESGGGVVQPGRSLRLSCAASGFTFGSYGMHWVRQAPGKGLEWVAVIWYDGSDEYYTDSVKGRFTVSRDNSKYTLYLQMNSLRADDTAVYYCARDGYRTRGNYFDYWGQGTLVTVSS VL: DVVMTQSPLSLPVALGQPASISCRSSQSLVYSDGNTYLNWFQQRPGQSPRRLIYKVSNRDSGVPDRFGGSGSGTDFTLKISRVEAEDVGLYYCMQGTHWPPTFGGGTKVEIK; 52 min

# context switch: different binder, same T½
Fill in the blank: the reported T½ of H4H6353P (antibody, V domains shown, Human IgG4 Fc (prefix H4H)) VH: EVQLVESGGGLVKPGGSLRLSCAASGFSFNYAWMSWVRQAPGKGLEWIGRIKSKINGGTTDYTAPVKGRFTISRDDSKNTLYLQMNSLKTEDTAVYYCRGDEDFWGQGTLVTVSS VL: DVVMTQSPLSLPVTLGQPASISCRSSQSLVYSDGFTYLNWFRQRPGQSPRRLIYKVSNRDSGVPDRFSGSGSGTDFTLRISRVEAEDVGIYYCMQGTHWPYTFGQGTKLEIK is ____. 5 min

Where these numbers come from: patent US20130216547A1
